I'd appreciate it if you could supply Sa42 MIC values for the items below.
Tested on: Staphylococcus aureus SAU.42 (ATCC 29213)
Assay type: cell-based
Experimental setup: ATCC 29213
The answer is to be given in mg/L; state only the numeric part.

Query :: Lab note: need Sa42 MIC for CCCCCCCCCCCCC(=O)N[C@@H](Cc1c[nH]c2ccccc12)C(=O)N[C@H](CC(N)=O)C(=O)N[C@@H](CC(=O)O)C(=O)N[C@@H]1C(=O)NCC(=O)N[C@@H](CCCN)C(=O)N[C@@H](CC(=O)O)C(=O)N[C@H](C)C(=O)N[C@@H](CC(=O)O)C(=O)NCC(=O)N[C@H](CO)C(=O)N[C@@H]([C@H](C)CC(=O)O)C(=O)N[C@@H](CC(=O)c2ccccc2N)C(=O)O[C@@H]1C [Compound 5] on Staphylococcus aureus SAU.42 (ATCC 29213), anyone have it?
Result :: 0.5

Query :: # query: Sa42 MIC | item CC(C)C1CCC(CCCC(=O)N[C@@H](Cc2c[nH]c3ccccc23)C(=O)N[C@H](CC(N)=O)C(=O)N[C@@H](CC(=O)O)C(=O)N[C@@H]2C(=O)NCC(=O)N[C@@H](CCCN)C(=O)N[C@@H](CC(=O)O)C(=O)N[C@H](C)C(=O)N[C@@H](CC(=O)O)C(=O)NCC(=O)N[C@H](CO)C(=O)N[C@@H]([C@H](C)CC(=O)O)C(=O)N[C@@H](CC(=O)c3ccccc3N)C(=O)O[C@@H]2C)CC1 (stereo partly drawn) [Compound 21] | system: Staphylococcus aureus SAU.42 (ATCC 29213)
Result :: 0.063

Query :: # returns recorded Sa42 MIC (system: Staphylococcus aureus SAU.42 (ATCC 29213)) for CC(C)CCCCCCCCCC(=O)N[C@@H](Cc1c[nH]c2ccccc12)C(=O)N[C@H](CC(N)=O)C(=O)N[C@@H](CC(=O)O)C(=O)N[C@@H]1C(=O)NCC(=O)N[C@@H](CCCN)C(=O)N[C@@H](CC(=O)O)C(=O)N[C@H](C)C(=O)N[C@@H](CC(=O)O)C(=O)NCC(=O)N[C@H](CO)C(=O)N[C@@H]([C@H](C)CC(=O)O)C(=O)N[C@@H](CC(=O)c2ccccc2N)C(=O)O[C@@H]1C [Compound 10]
Result :: 0.25
